Could you please report measured CLint scaled at 0.5 μM for the items listed next?
# assayNotes: Metabolic stability: unbound intrinsic clearance in liver microsomes
# Assay type: in vitro ADME
# cond: rat; liver microsomes 0.25 mg protein/mL, 0.5 μM compound, pH 7.4, 37° C.; Cl int unbound=Cl int/fu mic; compounds used as acid addition salts; read-out: Cl int, mic unb. (r) (unbound intrinsic clearance)

Could you report CLint scaled at 0.5 μM for every entry in the following list?
1. COc1cc(OC2CCC(CF)CC2)c(F)cc1CNC(=O)[C@@H]1CCCN1 (some centres unmarked) [Example 43]
2. COc1cc(OCc2ccc(C(F)(F)F)nc2)c(F)cc1CNC(=O)[C@@H]1CCCN1 [Example 10]
3. COc1cc(O[C@H]2CC[C@H](C(F)(F)F)CC2)c(F)cc1CNC(=O)[C@@H]1CCCN1C [Example 39]
4. COc1cc(OCC2CC(F)(F)C2)c(F)cc1CNC(=O)[C@@H]1CCCN1 [Example 29]

### Response
1. < 500 mL/min/kg
2. 500 to 1330 mL/min/kg
3. 500 to 1330 mL/min/kg
4. < 500 mL/min/kg

Look at each molecule and report its CLint scaled at 0.5 μM.
1. COc1cc(OCC2CCC(F)(F)C2)c(F)cc1CNC(=O)[C@@H]1CCCN1C (some centres unmarked) [Example 38]
2. COc1cc(OCC2(C(F)(F)F)CC2)c(F)cc1CNC(=O)[C@@H]1CCCN1 [Example 27]

### Response
["1330 to 4170 mL/min/kg", "500 to 1330 mL/min/kg"]

Give measured CLint scaled at 0.5 μM for every item shown.
1. COc1cc(OC2CC(F)(F)C2)c(F)cc1CNC(=O)[C@@H]1CCCN1 [Example 28]
2. COc1cc(OCC2CC(F)(F)C2(F)F)c(F)cc1CNC(=O)[C@@H]1CCCN1 (some centres unmarked) [Example 30]

### Response
< 500 mL/min/kg
< 500 mL/min/kg
